# tested-on: human recombinant serotonin (5-Hydroxytryptamine) 5-HT2C receptor (Homo sapiens, UniProt P28335)
# Construct: expressed in transfected cells; host or cells: Chinese hamster ovary (CHO-K1) cells
# Sequence (P28335 33-458): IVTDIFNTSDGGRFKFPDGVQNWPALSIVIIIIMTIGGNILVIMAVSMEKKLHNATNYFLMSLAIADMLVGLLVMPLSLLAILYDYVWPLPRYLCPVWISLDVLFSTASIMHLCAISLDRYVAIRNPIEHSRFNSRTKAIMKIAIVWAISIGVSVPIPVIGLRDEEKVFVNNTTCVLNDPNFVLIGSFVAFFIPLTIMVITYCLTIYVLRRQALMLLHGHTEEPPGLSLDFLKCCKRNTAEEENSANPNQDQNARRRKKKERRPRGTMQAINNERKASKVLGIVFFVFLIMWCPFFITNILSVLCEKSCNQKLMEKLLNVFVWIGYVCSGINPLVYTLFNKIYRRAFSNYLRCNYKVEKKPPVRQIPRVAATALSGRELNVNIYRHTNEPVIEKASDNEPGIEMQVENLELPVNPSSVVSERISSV
# assay-protocol: Serotonin 5-HT2C radioligand binding ([3H]Mesulergine)
# experimental-conditions: 0.1 μM ligand concentration
readout-kind: Percent Inhibition of ligand binding Serotonin 5-HT2C (%)
The response must be a number in % with no trailing unit.

| compound | display-unit | numeric-value |
| --- | --- | --- |
| Cc1ccc(CCn2c3c(c4cccnc42)C2CCCN2CC3)cn1 (centres unmarked) | % | 7 |
| Cc1ccc(CCn2c3c(c4cccnc42)CN2CCCC2C3)cn1 (centres unmarked) | % | 15 |
| CC(=Cn1c2c(c3cc(C)ccc31)C1CCCN1CC2)c1ccc(F)cc1 (stereo in doubt) | % | 88 |
| C/C(=C\n1c2c(c3cc(C)ccc31)C1CCCN1CC2)c1ccc(C)nc1 (centres unmarked) | % | 26 |
| Cc1cnc2c(c1)c1c(n2CCc2ccc(C)nc2)CCN2CCCC12 (centres unmarked) | % | 13 |
| Cc1cnc2c(c1)c1c(n2CCc2ccc(C)nc2)CC2CCCN2C1 (centres unmarked) | % | 19 |
| O=C(Cn1c2c(c3cccnc31)CN1CCCC1C2)N1CCCCC1 (centres unmarked) | % | 9 |

Challenge: Quick one: Percent Inhibition of ligand binding Serotonin 5-HT2C for O=C(Cn1c2c(c3cccnc31)C1CCCN1CC2)N1CCCCC1 (centres unmarked) ?
Response given: 16

* * *

The following molecules are shown together with reported Percent Inhibition of ligand binding Serotonin 5-HT7 values.
# tested-on: human recombinant serotonin (5-Hydroxytryptamine) 5-HT7 receptor (Homo sapiens)
# Sequence (P34969 whole entry): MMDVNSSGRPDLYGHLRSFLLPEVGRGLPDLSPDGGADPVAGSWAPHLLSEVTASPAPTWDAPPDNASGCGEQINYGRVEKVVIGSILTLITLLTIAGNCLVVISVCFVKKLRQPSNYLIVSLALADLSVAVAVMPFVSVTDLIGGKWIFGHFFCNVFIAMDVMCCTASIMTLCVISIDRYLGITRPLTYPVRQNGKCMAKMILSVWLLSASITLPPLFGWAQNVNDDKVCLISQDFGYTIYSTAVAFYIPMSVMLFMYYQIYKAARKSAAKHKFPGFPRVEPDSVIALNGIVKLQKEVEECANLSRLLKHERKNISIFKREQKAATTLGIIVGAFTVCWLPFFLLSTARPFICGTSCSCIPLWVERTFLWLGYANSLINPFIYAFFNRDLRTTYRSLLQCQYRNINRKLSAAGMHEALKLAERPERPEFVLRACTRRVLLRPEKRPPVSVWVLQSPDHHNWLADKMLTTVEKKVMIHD
# assay-protocol: Serotonin 5-HT7 radioligand binding ([3H]LSD)
# experimental-conditions: 1 μM ligand concentration
# Description: Compounds of invention were incubated with 5.5 nM [^3H]Lysergic acid diethylamide (LSD) for 2 h at 25° C. […] Receptor proteins were filtered and washed, the filters were then counted to determine [^3H]LSD specifically bound. Compounds were screened at 1 μM or lower, using 1% DMSO as vehicle. Biochemical assay results are presented as the percent inhibition of specific binding in Table 4.
The response must be a number in % with no trailing unit.

The cases that follow already have their Percent Inhibition of ligand binding Serotonin 5-HT7 on record.
| molecule | tested-on | display-unit | numeric-value |
| --- | --- | --- | --- |
| CC(=Cn1c2c(c3cc(C)ccc31)CN1CCCCC1C2)c1ccc(F)cc1 (stereo in doubt) [Compound 5] | human recombinant serotonin (5-Hydroxytryptamine) 5-HT7 receptor (Homo sapiens) | % | 97 |
| CC(=Cn1c2c(c3cc(C)ccc31)CN1CCCC1C2)c1ccc(F)cc1 (stereo in doubt) [Compound 3] | human recombinant serotonin (5-Hydroxytryptamine) 5-HT7 receptor (Homo sapiens) | % | 94 |
| CC(=Cn1c2c(c3cc(C)ccc31)C1CCCCN1CC2)c1ccc(F)cc1 (stereo in doubt) [Compound 6] | human recombinant serotonin (5-Hydroxytryptamine) 5-HT7 receptor (Homo sapiens) | % | 92 |

Challenge: Quick one: Percent Inhibition of ligand binding Serotonin 5-HT7 for CC(=Cn1c2c(c3cc(C)ccc31)C1CCCN1CC2)c1ccc(F)cc1 (stereo in doubt) [Compound 4] ?
Response given: 101

* * *

The following compounds are shown together with reported Percent Inhibition of ligand binding Serotonin 5-HT2A values.
# tested-on: human recombinant serotonin (5-Hydroxytryptamine) 5-HT2A receptor (Homo sapiens, UniProt P28223)
# Construct: expressed in transfected cells; host or cells: Chinese hamster ovary (CHO-K1) cells
# Sequence (P28223 whole entry): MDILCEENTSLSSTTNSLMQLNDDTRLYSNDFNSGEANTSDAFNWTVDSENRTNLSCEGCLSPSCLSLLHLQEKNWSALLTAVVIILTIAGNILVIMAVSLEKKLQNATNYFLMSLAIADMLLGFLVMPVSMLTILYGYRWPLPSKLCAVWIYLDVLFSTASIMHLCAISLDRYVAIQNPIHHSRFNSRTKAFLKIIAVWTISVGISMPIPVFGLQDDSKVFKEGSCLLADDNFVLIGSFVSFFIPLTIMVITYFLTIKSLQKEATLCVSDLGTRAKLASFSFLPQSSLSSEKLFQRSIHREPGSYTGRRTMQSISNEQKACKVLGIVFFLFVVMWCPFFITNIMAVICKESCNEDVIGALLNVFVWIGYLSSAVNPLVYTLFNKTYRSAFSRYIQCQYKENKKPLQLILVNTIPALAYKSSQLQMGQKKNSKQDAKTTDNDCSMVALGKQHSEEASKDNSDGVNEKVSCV
# assay-protocol: Serotonin 5-HT2A radioligand binding ([3H]Ketanserin)
# experimental-conditions: 1 μM ligand concentration

The cases that follow already have their Percent Inhibition of ligand binding Serotonin 5-HT2A on record.
| compound | result |
| --- | --- |
| CC(=Cn1c2c(c3cc(C)ccc31)C1CCCN1CC2)c1ccc(F)cc1 (stereo in doubt) | 99% |
| CC(=Cn1c2c(c3cc(C)ccc31)C1CCCCN1CC2)c1ccc(F)cc1 (stereo in doubt) | 99% |
| Fc1ccc(CCn2c3c(c4cc(Cl)ccc42)CN2CCCC2C3)cc1 (stereo not drawn) | 41% |
| Fc1ccc(CCn2c3c(c4cc(Cl)ccc42)C2CCCN2CC3)cc1 (stereo not drawn) | 11% |
| CC(=Cn1c2c(c3cc(C)ccc31)CN1CCCC1C2)c1ccc(F)cc1 (stereo in doubt) | 90% |

// moving on: another record for Percent Inhibition of ligand binding Serotonin 5-HT2A
Challenge: Quick one: Percent Inhibition of ligand binding Serotonin 5-HT2A for CC(=Cn1c2c(c3cc(C)ccc31)CN1CCCCC1C2)c1ccc(F)cc1 (stereo in doubt) ?
Response given: 98%
